Source of measurements: paper doi:10.1101/208041

# experimental.system: T1, dMpAgo (catalytically inactive MpAgo) (Marinitoga piezophila, UniProt H2J4R4 1-639, D446A)
# T1 sequence: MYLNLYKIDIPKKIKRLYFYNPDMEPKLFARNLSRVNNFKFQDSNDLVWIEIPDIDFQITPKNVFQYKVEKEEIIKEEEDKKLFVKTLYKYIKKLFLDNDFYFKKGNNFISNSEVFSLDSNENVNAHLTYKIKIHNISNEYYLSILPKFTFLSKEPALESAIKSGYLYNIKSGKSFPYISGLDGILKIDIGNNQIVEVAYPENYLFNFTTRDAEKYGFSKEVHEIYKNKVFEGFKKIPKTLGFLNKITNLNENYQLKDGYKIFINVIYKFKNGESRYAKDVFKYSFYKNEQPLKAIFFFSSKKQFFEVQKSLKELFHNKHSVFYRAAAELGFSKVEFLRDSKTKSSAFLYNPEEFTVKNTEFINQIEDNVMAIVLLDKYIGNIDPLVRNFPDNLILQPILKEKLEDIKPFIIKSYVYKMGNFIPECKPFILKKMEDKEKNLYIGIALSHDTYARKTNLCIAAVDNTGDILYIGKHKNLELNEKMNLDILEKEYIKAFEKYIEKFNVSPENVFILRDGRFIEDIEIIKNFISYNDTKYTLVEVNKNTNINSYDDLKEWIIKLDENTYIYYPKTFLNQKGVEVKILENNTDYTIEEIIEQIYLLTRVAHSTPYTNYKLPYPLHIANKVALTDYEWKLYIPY
# test.details: filter binding
recorded.endpoint: pKd
One number for each entry, as −log10 of the molar value.

# batch size: 3; output pKd per entry
1. dU guide / ON target (mixed, dU at guide 1) RNA 1: UAUACAACCUACUACCUCAUU RNA 2: GGACUAUGAUCUAGAUAUUAAUGAGGUAGUAGGUUGUAUCUCAGGAGGUC
2. rU guide / OFF target (mixed) RNA 1: UAUACAACCUACUACCUCAUU RNA 2: GUUAUGUGUGUGAUUAUAUUUGUUCCAGUUCCUGUGUAAUAGACAUGGAA
3. rC guide / OFF target (mixed) RNA 1: CAUACAACCUACUACCUCAUU RNA 2: GUUAUGUGUGUGAUUAUAUUUGUUCCAGUUCCUGUGUAAUAGACAUGGAA

Reply text:
1: 9.30; 2: 6.44; 3: 6.95
